Each recorded value in this set is attributed to PubChem BioAssay (EPA / NIEHS).

system: IYD (gene 389434); experiment: CCTE_GLTED_hIYD: CCTE's human Iodotyrosine Deiodinase (xIYD) Inhibition Assay, Great Lakes Toxicology and Ecology Division (GLTED) Lab (AID 2284317);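 also: cell-free human IYD enzyme made in baculovirus insect cells; iodide freed from monoiodotyrosine measured by cerium arsenite color change at 420 nm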
Calls of active or inactive are those of the source. The calls were made as follows: active = hit-call score of the fitted dose curve at least 0.9, where 1 is the maximum; inconclusive = response in the unintended direction; inactive = score below 0.9.
Measured Property: AC50

| Compound | Measured Property | Reported Measurement |
| --- | --- | --- |
| CCC(C)(C)c1ccc(O)c(C(C)(C)CC)c1 | AC50 | 37 µM (active) |
| C=CC(=O)OCCCCCC(C)C | AC50 | inactive |
| CC(C)(c1ccc(OCC2CO2)cc1)c1ccc(OCC2CO2)cc1 (stereo not drawn) | AC50 | inactive |

---

read-out: Interleukin 2 (IL2), IL2 (gene 3558); assay: BSK_BT_xIL2: BioMAP Diversity Plus: BT Assay for Interleukin 2 (IL2) Biomarker Activity (AID 2284245); conditions: primary human B cells with PBMC
Active and inactive are the calls of the source. The calls were made as follows: active = hit-call score of the fitted dose curve at least 0.9, where 1 is the maximum; inactive = score below 0.9.
Pick one: active, inactive

| Smi | Group |
| --- | --- |
| O=C(O)CCC(F)(C(F)(F)F)C(F)(F)F | inactive |

Any idea what this test logged for CCNc1nc(NC(C)(C)C)nc(SC)n1 ? inactive

Any idea what this test logged for COP(=S)(OC)Oc1ccc(Sc2ccc(OP(=S)(OC)OC)cc2)cc1 ? inactive

Any idea what this test logged for CC1(C)Cc2cccc(O)c2O1 ? inactive

Any idea what this test logged for NC(=S)Nc1ccccc1 ? inactive

Any idea what this test logged for COP(=S)(OC)Oc1cc(Cl)c(Cl)cc1Cl ? inactive

Any idea what this test logged for COc1cc(OC)nc(NC(=O)NS(=O)(=O)c2ncccc2C(=O)N(C)C)n1 ? inactive

Any idea what this test logged for O=S(=O)(c1ccc(Cl)cc1)c1ccc(Cl)cc1 ? inactive

Any idea what this test logged for C(=NC1CCCCC1)=NC1CCCCC1 ? active

---

test: ATG_CMV_CIS: Attagene CIS-FACTORIAL HepG2 Assay for human CMV (Internal Marker) (AID 2282928); conditions: HepG2 CMV promoter reporter, transcription factor profiling; actives raise or lower the signal;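 also: endpoint acts as a background internal control marker rather than a target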
Active and inactive are the calls of the source. The calls were made as follows: active = hit-call score of the fitted dose curve at least 0.9, where 1 is the maximum; inactive = score below 0.9.
Pick one: active, inactive

Past entries and their recorded results:
| Molecule | Group |
| --- | --- |
| CC(C)OC(=O)Nc1ccccc1 | inactive |
| COS(=O)(=O)c1ccc(C)cc1 | inactive |

Any idea what this test logged for CC(C)(C)c1cc(O)ccc1O ? active

Any idea what this test logged for Nc1ccc(-c2ccc(N)c(Cl)c2)cc1Cl ? active

Any idea what this test logged for CC(=O)[O][Hg][c]1ccccc1 ? inactive

Any idea what this test logged for COP(=O)(OC)O/C(=C\Cl)c1cc(Cl)c(Cl)cc1Cl ? inactive

Any idea what this test logged for CCC(=O)c1ccccc1 ? inactive

Any idea what this test logged for CCCCCCCCCl ? inactive

Any idea what this test logged for Cn1sc(Cl)cc1=O ? inactive

Any idea what this test logged for CCC(C)c1cccc(C(C)CC)c1O (stereo not given) ? inactive

Any idea what this test logged for O=CC=O ? inactive

Any idea what this test logged for N#CCc1ccc(Cl)cc1 ? inactive

Any idea what this test logged for C=C(C)C(=O)[O][Sn]([CH2]CCC)([CH2]CCC)[CH2]CCC ? active

Any idea what this test logged for CCC(=O)C(CC(C)N(C)C)(c1ccccc1)c1ccccc1 (stereo not given) ? inactive

Any idea what this test logged for NC(=O)O ? inactive
